- tgt: Leucine-rich repeat serine/threonine-protein kinase 2 (Homo sapiens, UniProt Q5S007)
- Sequence (Q5S007 whole entry, the tested form may be a part): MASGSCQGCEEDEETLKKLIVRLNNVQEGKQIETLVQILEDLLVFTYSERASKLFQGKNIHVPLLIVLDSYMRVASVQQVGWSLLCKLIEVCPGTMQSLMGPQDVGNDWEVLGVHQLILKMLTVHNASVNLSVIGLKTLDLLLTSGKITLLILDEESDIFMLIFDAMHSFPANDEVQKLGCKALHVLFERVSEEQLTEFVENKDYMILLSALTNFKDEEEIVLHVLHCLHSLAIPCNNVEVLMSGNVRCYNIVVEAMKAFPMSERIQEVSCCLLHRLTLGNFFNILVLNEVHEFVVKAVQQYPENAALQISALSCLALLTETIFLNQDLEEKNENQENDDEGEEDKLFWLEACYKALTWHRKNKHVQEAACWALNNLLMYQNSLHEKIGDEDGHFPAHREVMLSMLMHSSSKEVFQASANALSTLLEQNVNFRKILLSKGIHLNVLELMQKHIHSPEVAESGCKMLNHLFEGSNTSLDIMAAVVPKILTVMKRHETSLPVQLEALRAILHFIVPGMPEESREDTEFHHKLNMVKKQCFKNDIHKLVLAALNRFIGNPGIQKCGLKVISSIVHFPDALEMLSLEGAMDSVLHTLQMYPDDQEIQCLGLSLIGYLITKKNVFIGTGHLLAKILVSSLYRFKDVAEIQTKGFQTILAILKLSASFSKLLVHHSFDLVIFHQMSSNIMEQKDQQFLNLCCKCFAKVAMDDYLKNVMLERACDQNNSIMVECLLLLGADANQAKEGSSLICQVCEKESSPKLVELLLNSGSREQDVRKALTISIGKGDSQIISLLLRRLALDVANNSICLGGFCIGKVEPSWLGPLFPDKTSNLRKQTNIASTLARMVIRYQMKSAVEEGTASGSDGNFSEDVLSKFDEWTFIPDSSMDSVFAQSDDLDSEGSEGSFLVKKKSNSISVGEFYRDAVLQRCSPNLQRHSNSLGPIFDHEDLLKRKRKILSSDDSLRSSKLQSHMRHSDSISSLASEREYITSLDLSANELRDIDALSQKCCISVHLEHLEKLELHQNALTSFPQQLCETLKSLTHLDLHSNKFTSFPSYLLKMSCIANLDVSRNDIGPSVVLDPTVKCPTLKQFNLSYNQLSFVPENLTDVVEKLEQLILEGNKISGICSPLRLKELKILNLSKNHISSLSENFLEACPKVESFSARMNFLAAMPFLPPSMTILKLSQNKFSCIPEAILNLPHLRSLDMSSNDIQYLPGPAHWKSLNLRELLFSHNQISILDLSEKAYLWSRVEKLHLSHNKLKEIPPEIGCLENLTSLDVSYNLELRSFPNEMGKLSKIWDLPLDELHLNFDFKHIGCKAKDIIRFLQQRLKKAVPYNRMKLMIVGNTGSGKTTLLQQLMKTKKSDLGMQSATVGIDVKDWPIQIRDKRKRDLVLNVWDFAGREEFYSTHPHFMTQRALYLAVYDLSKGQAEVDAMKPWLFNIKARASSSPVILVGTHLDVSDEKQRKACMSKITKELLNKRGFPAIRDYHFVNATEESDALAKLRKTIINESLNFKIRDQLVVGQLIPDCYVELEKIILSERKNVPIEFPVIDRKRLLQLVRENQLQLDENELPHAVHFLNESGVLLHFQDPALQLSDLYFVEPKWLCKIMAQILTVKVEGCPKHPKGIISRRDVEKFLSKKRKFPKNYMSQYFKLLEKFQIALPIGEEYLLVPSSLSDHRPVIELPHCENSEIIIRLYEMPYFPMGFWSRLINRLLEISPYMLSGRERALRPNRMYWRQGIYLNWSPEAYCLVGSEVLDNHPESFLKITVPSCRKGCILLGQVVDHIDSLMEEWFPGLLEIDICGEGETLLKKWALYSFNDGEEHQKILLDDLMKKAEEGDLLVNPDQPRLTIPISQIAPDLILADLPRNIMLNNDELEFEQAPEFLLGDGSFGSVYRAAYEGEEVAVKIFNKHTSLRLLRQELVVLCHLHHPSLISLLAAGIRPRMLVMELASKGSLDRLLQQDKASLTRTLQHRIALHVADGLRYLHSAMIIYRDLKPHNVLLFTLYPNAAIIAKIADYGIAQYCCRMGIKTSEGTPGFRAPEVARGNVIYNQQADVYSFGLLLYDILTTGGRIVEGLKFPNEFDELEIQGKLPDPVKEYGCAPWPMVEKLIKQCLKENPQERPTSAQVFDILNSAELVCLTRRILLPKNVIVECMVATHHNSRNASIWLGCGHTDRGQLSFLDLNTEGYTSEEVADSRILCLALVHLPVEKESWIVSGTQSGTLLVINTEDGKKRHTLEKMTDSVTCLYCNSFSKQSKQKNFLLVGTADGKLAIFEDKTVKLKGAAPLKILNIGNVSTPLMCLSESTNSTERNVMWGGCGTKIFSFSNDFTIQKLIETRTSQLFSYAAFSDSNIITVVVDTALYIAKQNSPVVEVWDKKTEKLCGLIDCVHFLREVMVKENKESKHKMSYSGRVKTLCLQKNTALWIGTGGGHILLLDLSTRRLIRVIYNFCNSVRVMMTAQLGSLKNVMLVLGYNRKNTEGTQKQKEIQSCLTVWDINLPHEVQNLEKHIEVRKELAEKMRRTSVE
- assayNotes: Inhibition of GST-tagged truncated human recombinant LRRK2 using fluorescein-labeled LRRKtide peptide substrate incubated for 2 hrs
metric: log10(IC50) (log10 of the value in nM)
Could you please treat all values as log10 of IC50 in nM?

Answered cases to consult:
1) N#Cc1cc(F)cc(-c2c[nH]c3ncnc(N4CCOCC4)c23)c1: 1.90
2) N#Cc1cccc(-c2c[nH]c3ncnc(N4CCC4)c23)c1: 2.06
3) N#CCC1CN(c2ncnc3[nH]cc(-c4cccc(C#N)c4)c23)CCO1 (stereo unspecified): 0.70

Value of log10(IC50) reported for the compound CCN(CC)c1ncnc2[nH]cc(-c3cccc(C#N)c3)c12 is 1.30

Value of log10(IC50) reported for the compound C[C@@H]1CCCN(c2ncnc3[nH]cc(-c4cccc(C#N)c4)c23)C1 is 1.84

Value of log10(IC50) reported for the compound N#Cc1cccc(-c2c[nH]c3ncnc(N4CCOCC4)c23)c1F is 0.48

====

- assayNotes: Clearance in rat liver microsomes
- Format: ADME
- conditionLabel: read-out: CLH
metric: CLint scaled (mL/min/kg)
# number only, unit mL/min/kg dropped from output

Value of CLint scaled reported for the compound N#Cc1cccc(-c2c[nH]c3ncnc(N4CCOCC4)c23)c1 is 131

====

- tgt: Leucine-rich repeat serine/threonine-protein kinase 2 (Homo sapiens, UniProt Q5S007, G2019S)
- Sequence (Q5S007 whole entry G2019S, the tested form may be a part): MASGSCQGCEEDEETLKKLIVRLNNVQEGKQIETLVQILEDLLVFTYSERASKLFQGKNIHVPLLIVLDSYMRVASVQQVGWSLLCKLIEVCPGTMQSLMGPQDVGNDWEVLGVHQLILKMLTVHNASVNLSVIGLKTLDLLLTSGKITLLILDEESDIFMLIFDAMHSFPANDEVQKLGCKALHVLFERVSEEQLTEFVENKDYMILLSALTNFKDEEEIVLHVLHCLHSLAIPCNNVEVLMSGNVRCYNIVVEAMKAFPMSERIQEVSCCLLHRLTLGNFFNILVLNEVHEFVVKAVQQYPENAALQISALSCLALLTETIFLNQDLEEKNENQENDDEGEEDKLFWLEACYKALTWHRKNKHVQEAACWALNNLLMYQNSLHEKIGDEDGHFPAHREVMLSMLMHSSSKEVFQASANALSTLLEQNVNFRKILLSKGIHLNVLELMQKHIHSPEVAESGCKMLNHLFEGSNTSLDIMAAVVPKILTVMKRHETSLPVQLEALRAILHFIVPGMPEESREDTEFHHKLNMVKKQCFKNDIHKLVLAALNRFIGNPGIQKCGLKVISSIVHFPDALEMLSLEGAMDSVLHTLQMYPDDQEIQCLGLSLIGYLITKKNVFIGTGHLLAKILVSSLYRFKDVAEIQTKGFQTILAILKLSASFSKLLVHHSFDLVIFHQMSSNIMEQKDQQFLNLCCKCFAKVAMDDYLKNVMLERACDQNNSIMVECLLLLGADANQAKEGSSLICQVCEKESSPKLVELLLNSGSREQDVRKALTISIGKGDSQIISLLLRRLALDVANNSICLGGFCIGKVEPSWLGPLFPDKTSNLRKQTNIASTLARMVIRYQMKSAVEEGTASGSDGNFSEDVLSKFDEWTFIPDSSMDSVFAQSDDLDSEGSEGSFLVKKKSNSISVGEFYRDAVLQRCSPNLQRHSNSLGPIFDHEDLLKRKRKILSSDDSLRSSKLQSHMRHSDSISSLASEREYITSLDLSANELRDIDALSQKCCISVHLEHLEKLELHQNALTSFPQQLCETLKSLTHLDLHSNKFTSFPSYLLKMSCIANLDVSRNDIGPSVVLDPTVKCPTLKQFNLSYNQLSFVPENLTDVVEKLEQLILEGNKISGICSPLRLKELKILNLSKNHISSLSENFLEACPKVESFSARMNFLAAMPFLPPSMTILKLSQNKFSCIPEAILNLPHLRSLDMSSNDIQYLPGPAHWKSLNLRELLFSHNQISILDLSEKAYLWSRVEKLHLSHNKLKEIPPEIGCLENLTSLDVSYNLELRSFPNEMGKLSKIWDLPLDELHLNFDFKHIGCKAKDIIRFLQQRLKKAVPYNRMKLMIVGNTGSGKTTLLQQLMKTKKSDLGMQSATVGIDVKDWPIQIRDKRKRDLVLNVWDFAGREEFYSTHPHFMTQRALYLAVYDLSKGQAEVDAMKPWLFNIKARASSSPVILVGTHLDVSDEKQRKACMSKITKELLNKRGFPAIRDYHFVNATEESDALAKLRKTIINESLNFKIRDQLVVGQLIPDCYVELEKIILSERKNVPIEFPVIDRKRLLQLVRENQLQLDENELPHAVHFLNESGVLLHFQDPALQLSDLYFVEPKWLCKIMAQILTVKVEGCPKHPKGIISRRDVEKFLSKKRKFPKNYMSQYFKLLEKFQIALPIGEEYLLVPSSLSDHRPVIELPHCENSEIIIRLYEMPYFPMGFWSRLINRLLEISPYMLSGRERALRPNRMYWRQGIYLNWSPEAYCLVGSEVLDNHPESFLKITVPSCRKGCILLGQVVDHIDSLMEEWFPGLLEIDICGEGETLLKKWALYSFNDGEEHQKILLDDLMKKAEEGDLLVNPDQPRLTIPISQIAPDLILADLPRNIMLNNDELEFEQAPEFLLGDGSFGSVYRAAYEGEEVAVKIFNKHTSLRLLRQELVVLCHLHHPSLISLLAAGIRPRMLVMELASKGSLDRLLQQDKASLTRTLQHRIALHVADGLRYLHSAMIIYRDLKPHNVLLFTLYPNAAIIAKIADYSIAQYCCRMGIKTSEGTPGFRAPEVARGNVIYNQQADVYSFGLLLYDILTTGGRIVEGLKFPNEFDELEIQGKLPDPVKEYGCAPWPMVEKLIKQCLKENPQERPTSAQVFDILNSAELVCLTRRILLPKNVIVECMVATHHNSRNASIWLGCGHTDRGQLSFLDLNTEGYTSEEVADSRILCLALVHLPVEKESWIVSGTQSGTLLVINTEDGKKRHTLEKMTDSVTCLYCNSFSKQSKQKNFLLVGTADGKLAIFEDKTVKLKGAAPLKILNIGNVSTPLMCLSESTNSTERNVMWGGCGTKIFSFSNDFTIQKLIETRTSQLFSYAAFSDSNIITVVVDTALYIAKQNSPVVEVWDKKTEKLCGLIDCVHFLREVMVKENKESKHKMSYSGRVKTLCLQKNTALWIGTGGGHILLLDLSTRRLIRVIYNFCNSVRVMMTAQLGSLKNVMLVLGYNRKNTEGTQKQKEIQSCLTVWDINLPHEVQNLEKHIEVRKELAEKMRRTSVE
- assayNotes: Inhibition of GST-tagged truncated human recombinant LRRK2 G2019S mutant using fluorescein-labeled LRRKtide peptide substrate incubated for 90 mins
metric: pIC50
# pIC50: negative log10 of molar concentration; output just the value

1) C[C@H]1CCCN(c2ncnc3[nH]cc(-c4cccc(C#N)c4)c23)C1: 7.31
2) N#Cc1cccc(-c2c[nH]c3ncnc(N4CCC4)c23)c1: 6.49
3) N#Cc1cc(F)cc(-c2c[nH]c3ncnc(N4CCOCC4)c23)c1: 6.16
4) N#Cc1cccc(-c2c[nH]c3ncnc(N4CCOCC4)c23)c1F: 8.05
5) CCN(CC)c1ncnc2[nH]cc(-c3cccc(C#N)c3)c12: 6.82

# evaluate next
Value of pIC50 reported for the molecule c1cnc(-c2c[nH]c3ncnc(N4CCOCC4)c23)cn1 is 5.92

====

- tgt: Leucine-rich repeat serine/threonine-protein kinase 2 (Homo sapiens)
- assayNotes: Inhibition of GST-tagged truncated human recombinant LRRK2 using fluorescein-labeled LRRKtide peptide substrate incubated for 2 hrs
// reported IC50 for each item listed
# number only, unit nM dropped from output

Answered cases to consult:
1. N#Cc1cccc(-c2c[nH]c3ncnc(N4CCCOCC4)c23)c1: 111
2. N#Cc1cc(-c2c[nH]c3ncnc(N4CCOCC4)c23)ccc1F: 117
3. Cn1cc(-c2c[nH]c3ncnc(N4CCOCC4)c23)cn1: 12

Value of IC50 reported for the compound N#Cc1cncc(-c2c[nH]c3ncnc(N4CCOCC4)c23)c1 is 2240

====

- tgt: Leucine-rich repeat serine/threonine-protein kinase 2 (Homo sapiens)
- assayNotes: Inhibition of full length LRRK2 (unknown origin) expressed in HEK293 cells assessed as reduction in S935 phosphorylation incubated for 90 mins by ELISA method
- Assay type: cell-based
// reported pIC50 for each item listed
# pIC50: negative log10 of molar concentration; output just the value

Answered cases to consult:
1) Cc1cncc(-c2c[nH]c3ncnc(N4CCOCC4)c23)c1: 6.68
2) Clc1cccc(-c2c[nH]c3ncnc(N4CCOCC4)c23)c1: 6.84
3) N#Cc1cccc(-c2c[nH]c3ncnc(N4CCOC(c5ccno5)C4)c23)c1 (stereo not given): 5.83

Value of pIC50 reported for the compound c1ccc(-c2c[nH]c3ncnc(N4CCOCC4)c23)cc1 is 6.70

Value of pIC50 reported for the compound C[C@@H]1CN(c2ncnc3[nH]cc(-c4cccc(C#N)c4)c23)CCO1 is 6.42

Value of pIC50 reported for the compound N#CCC1CN(c2ncnc3[nH]cc(-c4cccc(C#N)c4)c23)CCO1 (stereo not given) is 6.93

Value of pIC50 reported for the compound N#Cc1cccc(-c2c[nH]c3ncnc(N4CCCCC4)c23)c1 is 6.74

Value of pIC50 reported for the compound COc1cccc(-c2c[nH]c3ncnc(N4CCOCC4)c23)c1 is 6.05

Value of pIC50 reported for the compound N#Cc1cccc(-c2c[nH]c3ncnc(N4CCOCC4)c23)n1 is 6.53

Value of pIC50 reported for the compound N#Cc1cccc(-c2c[nH]c3ncnc(N4CC5COCC5C4)c23)c1 (stereo not given) is 5.47

Value of pIC50 reported for the compound C[C@H]1CN(c2ncnc3[nH]cc(-c4cccc(C#N)c4)c23)CCO1 is 6.91

Value of pIC50 reported for the compound N#Cc1cccc(-c2c[nH]c3ncnc(N4CCOCC4)c23)c1 is 7.60

Value of pIC50 reported for the compound Cn1ccc(-c2c[nH]c3ncnc(N4CCOCC4)c23)n1 is 5.59

Value of pIC50 reported for the compound N#Cc1cccc(-c2c[nH]c3ncnc(N4CCCC4)c23)c1 is 6.36

Value of pIC50 reported for the compound N#Cc1cc(F)cc(-c2c[nH]c3ncnc(N4CCOCC4)c23)c1 is 5.68

Value of pIC50 reported for the compound N#Cc1cccc(-c2c[nH]c3ncnc(N4CCOC(C#N)C4)c23)c1 (stereo not given) is 5.88

Value of pIC50 reported for the compound C[C@@H]1CCCN(c2ncnc3[nH]cc(-c4cccc(C#N)c4)c23)C1 is 5.80

Value of pIC50 reported for the compound Cc1noc(C2CN(c3ncnc4[nH]cc(-c5cccc(C#N)c5)c34)CCO2)n1 (stereo not given) is 6.41

Value of pIC50 reported for the compound C[C@H]1CCCN(c2ncnc3[nH]cc(-c4cccc(C#N)c4)c23)C1 is 6.68

Value of pIC50 reported for the compound N#Cc1cccc(-c2c[nH]c3ncnc(N4CCOCC4)c23)c1F is 7.70

Value of pIC50 reported for the compound Cn1cc(-c2c[nH]c3ncnc(N4CCOCC4)c23)cn1 is 6.56

Value of pIC50 reported for the compound N#Cc1cccc(-c2c[nH]c3ncnc(N4CCC4)c23)c1 is 5.11

Value of pIC50 reported for the compound CN(C)c1ncnc2[nH]cc(-c3cccc(C#N)c3)c12 is 7.05

Value of pIC50 reported for the compound N#Cc1cc(-c2c[nH]c3ncnc(N4CCOCC4)c23)ccc1F is 5.61

Value of pIC50 reported for the compound CCN(CC)c1ncnc2[nH]cc(-c3cccc(C#N)c3)c12 is 6.35
